Test: in vivo
Conditions: rat, in vivo
property-name: MTD at 24 h (mg/kg)

1. CCCCC(C)(O)C/C=C/[C@H]1[C@H](O)CC(=O)[C@@H]1CCCCCCC(=O)OC (mixture of isomers)
0.5
2. Nc1ccc(O)c(C(=O)O)c1
750
